Molecular target: T1, tail-chimeric peptide IhfA3-IhfB2NTHI (nontypeable Haemophilus influenzae …)
T1 construct: also called IHF(NTHI) tail chimeric peptide; IHFNTHI tail chimeric peptide
T1 peptide: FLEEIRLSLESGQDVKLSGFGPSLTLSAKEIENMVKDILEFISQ
Assay: direct ELISA #1, peptide coated (curves not reaching equilibrium)
property name: EC50 (µg/mL)
Hi! Could you send only the number? It should be in µg/mL, unit omitted.

binder	EC50 / µg/mL
humanized anti-tail monoclonal antibody, heavy chain SEQ ID NO: 5 and light chain SEQ ID NO: 11 (antibody, V domains shown, also called H10214 (11E7.C7 Humanized HC2) + L10214 (11E7.C7 Humanized LC2)) VH: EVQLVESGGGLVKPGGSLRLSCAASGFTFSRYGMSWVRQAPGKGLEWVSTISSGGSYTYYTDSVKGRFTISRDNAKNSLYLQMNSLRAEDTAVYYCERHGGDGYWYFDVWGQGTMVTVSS VL: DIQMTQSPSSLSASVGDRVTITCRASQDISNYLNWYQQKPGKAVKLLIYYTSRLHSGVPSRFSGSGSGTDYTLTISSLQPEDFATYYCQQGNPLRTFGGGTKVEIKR	0.014

For the next question, use this binder.
The measured EC50 associated with humanized anti-tail monoclonal antibody, heavy chain SEQ ID NO: 4 and light chain SEQ ID NO: 10 (antibody, V domains shown, also called HuTailMab; TP-21958) VH: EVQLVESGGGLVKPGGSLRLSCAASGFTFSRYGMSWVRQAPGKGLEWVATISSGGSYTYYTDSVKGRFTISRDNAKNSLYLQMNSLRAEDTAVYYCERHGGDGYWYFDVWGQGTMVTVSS VL: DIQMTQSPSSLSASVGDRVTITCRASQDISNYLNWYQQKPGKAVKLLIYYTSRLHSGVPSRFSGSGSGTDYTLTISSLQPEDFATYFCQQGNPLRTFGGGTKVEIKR reads 0.01
